assay: gradient 5% acetonitrile 3 min, to 50% in 2 min, to 85% in 15 min, held 3 min, 100 µL/min; settings: column: Zorbax Extend-C18 2.1 x 50 mm; eluents: water / acetonitrile, 0.1% formic acid
Record form. Attribute: RP-LC retention time. Fill in for each entry.
Note: unit s is implicit; provide only the numeric part.

In: Can you look up the measured RP-LC retention time of Cc1ccc(S(=O)(=O)N2CCC(C)(C(=O)NCc3ccccc3)CC2)cc1 for me?
Out: 932

In: Quick one: COc1cccc(NC(=O)Nc2ccc3nc4n(c(=O)c3c2)CCC4)c1
Out: 673

In: Quick one: Cn1c(=O)c2cc(C(=O)Nc3ccccc3C(N)=O)cnc2n(-c2ccccc2)c1=O
Out: 788

In: Quick one: CC1CCN(S(=O)(=O)N2CCCC(C(=O)NCCCN3CCc4ccccc4C3)C2)CC1 (stereo not given)
Out: 714

In: Quick one: CCOc1ccc(CC(=O)N2CCN(c3ccc(NC(=O)c4ccccc4)nn3)CC2)cc1
Out: 667

In: Quick one: O=C(CN1C(=O)NC2(CCCCC2)C1=O)Nc1cccc(Cl)c1
Out: 815

In: Quick one: O=C(NC1CCCCCC1)C1CCN(c2nccnc2Oc2ccccc2)CC1
Out: 1020

In: Quick one: CCc1ccc(CNC(=O)c2cc(-c3ccncc3)cn2C)cc1
Out: 669

In: Quick one: Cn1c(=O)c2cc(C(=O)NCCCc3ccccc3)sc2n(C)c1=O
Out: 765

In: Quick one: O=C(Nc1nccn(-c2ccc3c(c2)CCC3)c1=O)c1ccc(Cl)cc1
Out: 962

In: Quick one: CC(=O)c1ccc(NC(=O)CCc2c(C)nn(-c3cc(N(C)C)ncn3)c2C)cc1
Out: 749

In: Quick one: Cn1nc2n(c1=O)CCN(C(=O)CC1=CCCCC1)CC2
Out: 656

In: Quick one: O=C(C1CCN(c2nc(-c3ccc(Cl)cc3)no2)CC1)N1CCOCC1
Out: 874

In: Quick one: O=C(Nc1cccc(Cl)c1)C1CCN(S(=O)(=O)c2cc(C(=O)N3CCOCC3)cs2)CC1
Out: 850

In: Quick one: COc1cccc(N2C(=O)CC(c3ccc(OC)c(OC)c3)CC2=O)c1
Out: 789

In: Quick one: CCc1ccc(NS(=O)(=O)c2ccc(-c3nnc(C4CCC4)o3)o2)cc1
Out: 996

In: Quick one: CCCc1c(C(=O)O)nnn1-c1cccc(Cl)c1
Out: 783

In: Quick one: Cc1ccc(C(=O)N2CCC(n3c(C)cnc3C)C2)s1 (stereo not given)
Out: 585

In: Quick one: CCOC(=O)CC1=CC(SCC(=O)N2CCC(C)CC2)=Nc2ccccc2N1
Out: 1150

In: Quick one: CC(=O)N(C1CCOCC1)C1CCN(C(=O)Nc2cc(F)c(F)c(F)c2)CC1
Out: 747
